# Test system: COLO 205 colon
# protocolDescription: NCI-60 one-dose screen, 48 h
# appliedConditions: 10 µM unless noted
The panel holds about 83,000 compounds, 20% with a hit somewhere; the sample as a whole holds those more often. Activity calls are given as the source filed them. Rule for the calls: active = growth percent below 10; inactive = the rest.
Classes to choose from: true (1) for active, false (0) for inactive

# molecule, category
data = [
    ("CN(C)c1ccc(Cc2cc(-c3ccccc3)nn(C/C(=N/O)c3ccccc3)c2=O)cc1", "false (0)"),
    ("Cc1nc2c(c(-c3ccccc3)n1)Cc1c(ccc3ccccc13)O2", "false (0)"),
    ("O=C(Cn1cc(CSc2nc3ccccc3o2)nn1)Nc1ccc([N+](=O)[O-])cc1", "false (0)"),
    ("c1ccc2[nH]c(-c3ccc(-c4nccc5c4[nH]c4ccccc45)cc3)nc2c1", "false (0)"),
    ("Cn1cc(-c2ccc3c(Nc4cccc(NC(=O)Nc5cccc(F)c5)c4)ncnc3c2)cn1", "true (1)"),
]

Outcome? CC1=C([Se]CC(OC(=O)[C@@H](CO)NC(=O)OC(C)(C)C)C(=O)NCCCCCC(=O)OCc2ccccc2)C(=O)c2ccccc2C1=O (stereo partly specified)
false (0)

Outcome? CC/C(=C(/c1ccc(Cl)cc1)c1ccc(OCCN2CCCCCC2)cc1)c1ccccc1
false (0)

Outcome? C=CCn1c(SCC(=O)Nc2ccc(C(=O)/C=C/c3cc(OC)c(OC)c(OC)c3)cc2)nnc1-c1cc(-c2ccc(S(N)(=O)=O)cc2)nc2ccccc12
false (0)

Outcome? COc1ccccc1-c1nc2ccc3[nH]ncc3c2c2c1CCCC2
false (0)

Outcome? Cc1c2ccncc2c(C)c2c1c1ccccc1n2CCCCCC(=O)O
false (0)

Outcome? COc1ccc(Nc2nc(Nc3cc(C)[nH]n3)c3cc(OC)c(OC)cc3n2)cc1
true (1)

----------
growth values, listed per item
# Test system: SNB-19 CNS
# protocolDescription: NCI-60 one-dose screen, 48 h (100 = growth as untreated, 0 = no growth, -100 = all killed)
# appliedConditions: 10 µM unless noted
Compounds without any hit were thinned out: in the full panel of roughly 83,000, 20% have a hit. Active and inactive are the calls of the source. The calls were made as follows: active = growth percent below 10; inactive = the rest.

# smilesInput, growth
data = [
    ("N#Cc1c(-c2ccc(Cl)cc2)nc(NN=Cc2cccc(Cl)c2)nc1N1CCOCC1", "104% (inactive)"),
]

The reported growth of the molecule C=CC(=O)NCc1cccc(Nc2ncc(Br)c(NCCCNC(=O)C3CCC3)n2)c1 was 3.56% (active)

The reported growth of the molecule c1ccc(-c2cn3nc(-c4c[nH]c5ccccc45)sc3n2)cc1 was 87.6% (inactive)

The reported growth of the molecule COc1cc(/C=C2\C(=O)N(CCOc3cc(O)c4c(=O)cc(-c5ccccc5)oc4c3)c3ccccc32)cc(OC)c1O was 65.3% (inactive)

----------
# System: NCI-H226 lung
# protocolDescription: NCI-60 one-dose screen, 48 h
# appliedConditions: 10 µM unless noted
Compounds without any hit were thinned out: in the full panel of roughly 83,000, 20% have a hit. The source made the active and inactive calls. Rule for the calls: active = growth percent below 10; inactive = the rest.
Classes to choose from: active, inactive

# compound, category
data = [
    ("Cc1ccc(C2=Nc3c(N)nc(N)nc3NC(c3cccc(Nc4ccnc5cc(C(F)(F)F)ccc45)c3)C2)cc1 (stereo not given)", "inactive"),
    ("CCOC(=O)/C=C1\\S/C(=N\\Nc2cc(=O)[nH]c3ccc(OC)cc23)N(c2ccccc2)C1=O", "inactive"),
    ("Cc1ccc2c(c1)CC(O)CC1C(=O)N(CCO)CC(=O)N21 (stereo not given)", "inactive"),
]

Outcome? CC/C(=C(/c1ccc(Cl)cc1)c1ccc(OCCN2CCCC2)cc1)c1ccccc1
inactive

Outcome? CCOC(=O)c1ccc2c(c1)c1c(C)c3cnccc3c(C)c1n2C
active

Outcome? C[C@@H]1N=C(c2ccc(Cl)cc2Cl)Nc2nc3ccccn3c2C1=O
inactive

Outcome? Nc1n[nH]c2cccc(C#Cc3cccc(C(=O)Nc4ccc(Cl)c(C(F)(F)F)c4)c3)c12
inactive

Outcome? CCOC(=O)CC1CSC(N/N=C(/C)c2cccc(C(F)(F)F)c2)=N1 (stereo not given)
inactive

Outcome? NCCNc1ccc([N+](=O)[O-])cc1
inactive

Outcome? COc1ccc(Cn2cc3c(c2)-c2oncc2CC3)cc1
inactive
